The origin of these recorded values is ChEMBL document CHEMBL3352485.

- experiment: C5min in Sprague-Dawley rat at 1 mg/kg, iv after 5 mins by LC-MS/MS analysis
- settings: in vivo, read-out: Cmin
Where a SMILES comes first, the peptide text is derived from it. [ ]: non-standard residue; d: D form. Arg(Me) = CNC(=N)NCCC[C@H](N)C(=O)O; d4Pal = N[C@H](Cc1ccncc1)C(=O)O; azaGly = NNC(=O)O
Reported concentration at 5 min is given for each of the following compounds.
Kindly report the value followed by its unit.

Quick one: concentration at 5 min for CNC(=N)NCCC[C@H](NC(=O)[C@H](CC(C)C)NC(=O)NNC(=O)[C@H](Cc1ccccc1)NC(=O)[C@H](CO)NC(=O)[C@H](CC(N)=O)NC(=O)[C@@H](Cc1ccncc1)NC(=O)[C@H](N)Cc1ccc(O)cc1)C(=O)N[C@@H](Cc1ccccc1)C(N)=O [KISS1-305] (H-[dY][d4Pal]NSF[azaGly]L[Arg(Me)]F-NH2) ? 969 ng/mL

Now the compound "CNC(=N)NCCC[C@H](NC(=O)[C@H](CC(C)C)NC(=O)NNC(=O)[C@H](Cc1ccccc1)NC(=O)[C@@H](NC(=O)[C@H](CC(N)=O)NC(=O)[C@@H](Cc1c[nH]c2ccccc12)NC(=O)[C@@H](Cc1ccc(O)cc1)NC(C)=O)[C@@H](C)O)C(=O)N[C@@H](Cc1ccccc1)C(N)=O" 1450 ng/mL

Now the compound "CNC(=N)NCCC[C@H](NC(=O)[C@H](CC(C)C)NC(=O)NNC(=O)[C@H](Cc1ccccc1)NC(=O)[C@@H](NC(=O)[C@H](CC(N)=O)NC(=O)[C@@H](Cc1ccncc1)NC(=O)[C@@H](Cc1ccc(O)cc1)NC(C)=O)[C@@H](C)O)C(=O)N[C@@H](Cc1c[nH]c2ccccc12)C(N)=O" 2070 ng/mL

Now the compound CNC(=N)NCCC[C@H](NC(=O)[C@H](CC(C)C)NC(=O)NNC(=O)[C@H](Cc1ccccc1)NC(=O)[C@@H](NC(=O)[C@H](CC(N)=O)NC(=O)[C@@H](Cc1c[nH]c2ccccc12)NC(=O)[C@@H](Cc1ccc(O)cc1)NC(C)=O)[C@@H](C)O)C(=O)N[C@@H](Cc1c[nH]c2ccccc12)C(N)=O (Ac-[dY][dW]NTF[azaGly]L[Arg(Me)]W-NH2) 2510 ng/mL

Others:
Quick one: concentration at 5 min for "CNC(=N)NCCC[C@H](NC(=O)[C@H](CC(C)C)NC(=O)NNC(=O)[C@H](Cc1ccccc1)NC(=O)[C@@H](NC(=O)[C@H](CC(N)=O)NC(=O)[C@@H](Cc1c[nH]c2ccccc12)NC(=O)[C@H](N)Cc1ccc(O)cc1)[C@@H](C)O)C(=O)N[C@@H](Cc1c[nH]c2ccccc12)C(N)=O" ? 1440 ng/mL

---

- experiment: Mean residence time in Sprague-Dawley rat at 1 mg/kg, sc after 24 hrs by LC-MS/MS analysis
- Type: ADME, organism-based
- Design: dose 1 mg/kg, route subcutaneous
- settings: in vivo
Where a SMILES comes first, the peptide text is derived from it. [ ]: non-standard residue; d: D form. Arg(Me) = CNC(=N)NCCC[C@H](N)C(=O)O; d4Pal = N[C@H](Cc1ccncc1)C(=O)O; azaGly = NNC(=O)O
Reported MRT is given for each of the following compounds.
Report as a plain number; the unit min is understood.

Please review the following examples before continuing.
Quick one: MRT for "CNC(=N)NCCC[C@H](NC(=O)[C@H](CC(C)C)NC(=O)NNC(=O)[C@H](Cc1ccccc1)NC(=O)[C@@H](NC(=O)[C@H](CC(N)=O)NC(=O)[C@@H](Cc1c[nH]c2ccccc12)NC(=O)[C@@H](Cc1ccc(O)cc1)NC(C)=O)[C@@H](C)O)C(=O)N[C@@H](Cc1ccccc1)C(N)=O" ? 52.8

Now the compound "CNC(=N)NCCC[C@H](NC(=O)[C@H](CC(C)C)NC(=O)NNC(=O)[C@H](Cc1ccccc1)NC(=O)[C@@H](NC(=O)[C@H](CC(N)=O)NC(=O)[C@@H](Cc1c[nH]c2ccccc12)NC(=O)[C@H](N)Cc1ccc(O)cc1)[C@@H](C)O)C(=O)N[C@@H](Cc1c[nH]c2ccccc12)C(N)=O" 52.8

Others:
Quick one: MRT for CNC(=N)NCCC[C@H](NC(=O)[C@H](CC(C)C)NC(=O)NNC(=O)[C@H](Cc1ccccc1)NC(=O)[C@@H](NC(=O)[C@H](CC(N)=O)NC(=O)[C@@H](Cc1c[nH]c2ccccc12)NC(=O)[C@@H](Cc1ccc(O)cc1)NC(C)=O)[C@@H](C)O)C(=O)N[C@@H](Cc1c[nH]c2ccccc12)C(N)=O (Ac-[dY][dW]NTF[azaGly]L[Arg(Me)]W-NH2) ? 51.6

Now the compound CNC(=N)NCCC[C@H](NC(=O)[C@H](CC(C)C)NC(=O)NNC(=O)[C@H](Cc1ccccc1)NC(=O)[C@H](CO)NC(=O)[C@H](CC(N)=O)NC(=O)[C@@H](Cc1ccncc1)NC(=O)[C@H](N)Cc1ccc(O)cc1)C(=O)N[C@@H](Cc1ccccc1)C(N)=O [KISS1-305] (H-[dY][d4Pal]NSF[azaGly]L[Arg(Me)]F-NH2) 36.6

Now the compound "CNC(=N)NCCC[C@H](NC(=O)[C@H](CC(C)C)NC(=O)NNC(=O)[C@H](Cc1ccccc1)NC(=O)[C@@H](NC(=O)[C@H](CC(N)=O)NC(=O)[C@@H](Cc1ccncc1)NC(=O)[C@@H](Cc1ccc(O)cc1)NC(C)=O)[C@@H](C)O)C(=O)N[C@@H](Cc1c[nH]c2ccccc12)C(N)=O" 64.2

---

Reported remaining at 168 h is given for each of the following compounds.
- experiment: Stability of the compound in aqueous solution assessed as residual ratio at pH 3 up to 1 week by HPLC analysis relative to initial level
- Type: physicochemical

Please review the following examples before continuing.
Quick one: remaining at 168 h for "CNC(=N)NCCC[C@H](NC(=O)[C@H](CC(C)C)NC(=O)NNC(=O)[C@H](Cc1ccccc1)NC(=O)[C@H](CO)NC(=O)[C@H](CC(N)=O)NC(=O)[C@@H](Cc1c[nH]c2ccccc12)NC(=O)[C@H](N)Cc1ccc(O)cc1)C(=O)N[C@@H](Cc1c[nH]c2ccccc12)C(N)=O" ? 98.2%

Now the compound "CNC(=N)NCCC[C@H](NC(=O)[C@H](CC(C)C)NC(=O)NNC(=O)[C@H](Cc1ccccc1)NC(=O)[C@@H](NC(=O)[C@H](CC(N)=O)NC(=O)[C@@H](Cc1c[nH]c2ccccc12)NC(=O)[C@H](N)Cc1ccc(O)cc1)[C@@H](C)O)C(=O)N[C@@H](Cc1c[nH]c2ccccc12)C(N)=O" 98.7%

Others:
Quick one: remaining at 168 h for "CNC(=N)NCCC[C@H](NC(=O)[C@H](CC(C)C)NC(=O)NNC(=O)[C@H](Cc1ccccc1)NC(=O)[C@@H](NC(=O)[C@H](CC(N)=O)NC(=O)[C@@H](Cc1c[nH]c2ccccc12)NC(=O)[C@@H](Cc1ccc(O)cc1)NC(C)=O)[C@@H](C)O)C(=O)N[C@@H](Cc1ccccc1)C(N)=O" ? 97.5%

---

Reported pEC50 is given for each of the following compounds.
- test system: KiSS-1 receptor (Rattus norvegicus, UniProt Q924U1)
- Sequence (Q924U1 whole entry): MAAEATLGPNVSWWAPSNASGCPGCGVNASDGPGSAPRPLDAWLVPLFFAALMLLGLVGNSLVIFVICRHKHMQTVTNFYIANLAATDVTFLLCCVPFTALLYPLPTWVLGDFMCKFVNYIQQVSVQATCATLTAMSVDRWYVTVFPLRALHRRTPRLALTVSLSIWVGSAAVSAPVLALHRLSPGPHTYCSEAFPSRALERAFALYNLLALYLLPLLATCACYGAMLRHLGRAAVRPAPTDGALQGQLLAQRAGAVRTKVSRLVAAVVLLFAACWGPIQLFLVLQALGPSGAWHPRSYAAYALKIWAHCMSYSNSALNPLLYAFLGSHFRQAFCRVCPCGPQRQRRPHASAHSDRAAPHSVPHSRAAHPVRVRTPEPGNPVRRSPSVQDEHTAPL
- experiment: Agonist activity at rat KISS1R transfected in CHO cells assessed as intracellular calcium flux after 24 hrs by functional FLIPR assay
pEC50 (log units): -log10 of the concentration in mol/L.

Please review the following examples before continuing.
Please tell me: pEC50 of "CNC(=N)NCCC[C@H](NC(=O)[C@H](CC(C)C)NC(=O)NNC(=O)[C@H](Cc1ccccc1)NC(=O)[C@@H](NC(=O)[C@H](CC(N)=O)NC(=O)[C@@H](Cc1c[nH]c2ccccc12)NC(=O)CCc1ccc(O)cc1)[C@@H](C)O)C(=O)N[C@@H](Cc1c[nH]c2ccccc12)C(N)=O" , system KiSS-1 receptor (Rattus norvegicus, UniProt Q924U1)? 8.96

Now the compound "CNC(=N)NCCC[C@H](NC(=O)[C@H](CC(C)C)NC(=O)NNC(=O)[C@H](Cc1ccccc1)NC(=O)[C@H](CO)NC(=O)[C@H](CC(N)=O)NC(=O)[C@@H](Cc1c[nH]c2ccccc12)NC(=O)[C@H](N)Cc1ccc(O)cc1)C(=O)N[C@@H](Cc1c[nH]c2ccccc12)C(N)=O" 8.64

Now the compound "CNC(=N)NCCC[C@H](NC(=O)[C@H](CC(C)C)NC(=O)NNC(=O)[C@H](Cc1ccccc1)NC(=O)[C@@H](NC(=O)[C@H](CC(N)=O)NC(=O)[C@@H](Cc1c[nH]c2ccccc12)NC(=O)[C@@H](Cc1ccc(O)cc1)NC(=O)c1ccccc1)[C@@H](C)O)C(=O)N[C@@H](Cc1c[nH]c2ccccc12)C(N)=O" 8.77

Now look at this one.
Please tell me: pEC50 of CNC(=N)NCCC[C@H](NC(=O)[C@H](CC(C)C)NC(=O)NNC(=O)[C@H](Cc1ccccc1)NC(=O)[C@@H]1CC(O)CN1C(=O)[C@H](CC(N)=O)NC(=O)[C@@H](Cc1ccncc1)NC(=O)[C@H](N)Cc1ccc(O)cc1)C(=O)N[C@@H](Cc1c[nH]c2ccccc12)C(N)=O (some centres undefined) , system KiSS-1 receptor (Rattus norvegicus, UniProt Q924U1)? 7.02
